Provenance of the data: BigSolDB 2.1

conditions: in isopropanol, 303.15 K
Readout Kind: solubility (mole fraction)
Lab note: jot the number down without any unit.

Bench note: what solubility (mole fraction) did CCOC(=O)C1=C[C@]2(CC)CCCN3CCc4c(n1c1ccccc41)[C@@H]32 show?
0.00108

====

conditions: in ethanol, 323.15 K
Readout Kind: solubility (mole fraction)

Bench note: what solubility (mole fraction) did CCOC(=O)C1=C[C@]2(CC)CCCN3CCc4c(n1c1ccccc41)[C@@H]32 show?
0.00302

====

conditions: in n-propanol, 308.15 K
Readout Kind: solubility (mole fraction)
Lab note: jot the number down without any unit.

Bench note: what solubility (mole fraction) did CCOC(=O)C1=C[C@]2(CC)CCCN3CCc4c(n1c1ccccc41)[C@@H]32 show?
0.00268

====

conditions: in n-butanol, 308.15 K
Readout Kind: solubility (mole fraction)
Lab note: jot the number down without any unit.

Bench note: what solubility (mole fraction) did CCOC(=O)C1=C[C@]2(CC)CCCN3CCc4c(n1c1ccccc41)[C@@H]32 show?
0.00374

====

settings: in ethanol, 288.15 K
Readout Kind: solubility (mole fraction)
Lab note: jot the number down without any unit.

Bench note: what solubility (mole fraction) did CCOC(=O)C1=C[C@]2(CC)CCCN3CCc4c(n1c1ccccc41)[C@@H]32 show?
0.000641

====

settings: in methanol, 303.15 K
Readout Kind: solubility (mole fraction)
Lab note: jot the number down without any unit.

Bench note: what solubility (mole fraction) did CCOC(=O)C1=C[C@]2(CC)CCCN3CCc4c(n1c1ccccc41)[C@@H]32 show?
0.00089

====

conditions: in cyclohexane, 308.15 K
Readout Kind: solubility (mole fraction)
Lab note: jot the number down without any unit.

Bench note: what solubility (mole fraction) did CCOC(=O)C1=C[C@]2(CC)CCCN3CCc4c(n1c1ccccc41)[C@@H]32 show?
0.00433

====

details: in ethanol, 293.15 K
Readout Kind: solubility (mole fraction)
Lab note: jot the number down without any unit.

Bench note: what solubility (mole fraction) did CCOC(=O)C1=C[C@]2(CC)CCCN3CCc4c(n1c1ccccc41)[C@@H]32 show?
0.00082

====

settings: in ethyl acetate, 298.15 K
Readout Kind: solubility (mole fraction)

Bench note: what solubility (mole fraction) did CCOC(=O)C1=C[C@]2(CC)CCCN3CCc4c(n1c1ccccc41)[C@@H]32 show?
0.00718

====

details: in 2-butanone, 303.15 K
Readout Kind: solubility (mole fraction)
Lab note: jot the number down without any unit.

Bench note: what solubility (mole fraction) did CCOC(=O)C1=C[C@]2(CC)CCCN3CCc4c(n1c1ccccc41)[C@@H]32 show?
0.0118

====

details: in 2-butanone, 288.15 K
Readout Kind: solubility (mole fraction)

Bench note: what solubility (mole fraction) did CCOC(=O)C1=C[C@]2(CC)CCCN3CCc4c(n1c1ccccc41)[C@@H]32 show?
0.00649

====

conditions: in ethyl acetate, 283.15 K
Readout Kind: solubility (mole fraction)
Lab note: jot the number down without any unit.

Bench note: what solubility (mole fraction) did CCOC(=O)C1=C[C@]2(CC)CCCN3CCc4c(n1c1ccccc41)[C@@H]32 show?
0.0039

====

conditions: in n-propanol, 318.15 K
Readout Kind: solubility (mole fraction)
Lab note: jot the number down without any unit.

Bench note: what solubility (mole fraction) did CCOC(=O)C1=C[C@]2(CC)CCCN3CCc4c(n1c1ccccc41)[C@@H]32 show?
0.00435
